Experimental system: T1, KLHL3 Kelch domain (a.a. 298–587) (human, UniProt Q9UH77-1 298-587)
T1 chain: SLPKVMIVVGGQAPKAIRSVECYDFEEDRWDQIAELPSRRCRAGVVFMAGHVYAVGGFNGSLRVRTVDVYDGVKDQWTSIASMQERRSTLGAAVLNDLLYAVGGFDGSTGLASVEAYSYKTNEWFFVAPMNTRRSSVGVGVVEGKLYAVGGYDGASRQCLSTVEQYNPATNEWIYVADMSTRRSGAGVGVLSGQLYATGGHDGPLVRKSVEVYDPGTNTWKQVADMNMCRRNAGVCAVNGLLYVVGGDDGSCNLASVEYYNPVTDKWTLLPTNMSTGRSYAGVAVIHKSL
Method summary: FP; 9.5 mM Cl-
pKd: −log10 of the molar value. Ends that are not written are not given here. Rhodamine‑110 = fluorophore on the N-terminus
Entries and their pKd

{"Binder": "{Rhodamine‑110}-ECEETEVDQHV [Rhodamine-110 labelled WNK3 degron peptide (ECEETEVDQHV)]", "pKd": 5.89}
{"Binder": "{Rhodamine‑110}-EPEEPEADQHQ (WNK4 acidic degron motif, residues 557–567; also called 11-residue degron from WNK4; source: synthetic peptide (Fmoc solid phase, purified by HPLC)) [Rhodamine-110 labelled WNK4 degron peptide (EPEEPEADQHQ)]", "pKd": 6.22}
